Procedure details: chemical genetic growth profiling, strain panel (AID 1159580);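 further: tested at 20 µM; growth read once vehicle control cultures reached saturation at 30 °C; 1 = growth at the plate median or of vehicle wells; lower values mean less growth of the strain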
Measurement context: S. cerevisiae deletion strains, growth OD, locus YDL035C, strain GPR1
Out of some 5,500 compounds screened, about 2,000 (36%) were called active. About 18% were inconclusive and are not listed. No stated cut-off is given here; in the data, active means normalized growth mostly below about 0.91 (no sharp cut-off); inconclusive means no clear call, values can overlap the other calls; inactive means mostly above about 0.92. This is one part of the list.
Outcomes: true (active), false (inactive)

- Compound: "COc1cc(OC)c2ccc(=O)oc2c1"
  Group: "false"
- Compound: "CC1CC[C@@]2(OC1)O[C@H]1CC3C4CC[C@@H]5C[C@@H](O)CC[C@]5(C)C4CC[C@]3(C)[C@H]1[C@@H]2C (stereo not given in full)"
  Group: "false"
- Compound: "CCOCN(C(=O)CCl)c1c(C)cccc1CC"
  Group: "false"
- Compound: "COc1c(C(C)C)oc2cc3oc(=O)ccc3cc12"
  Group: "true"
- Compound: "CC1CC[C@]2(NC1)O[C@H]1CC3C4CC[C@H]5C[C@@H](O)CC[C@]5(C)C4CC[C@]3(C)[C@H]1[C@@H]2C (stereo not given in full)"
  Group: "true"

---

Procedure details: chemical genetic growth profiling, strain panel (AID 1159580);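 further: tested at 20 µM; growth read once vehicle control cultures reached saturation at 30 °C; 1 = growth at the plate median or of vehicle wells; lower values mean less growth of the strain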
Measurement context: S. cerevisiae deletion strains, growth OD, locus YBR021W, strain FUR4, active compounds read low
Out of some 5,500 compounds screened, about 2,000 (36%) were called active. Another 18% or so got no clear call; they are omitted. The list shows a part of the results.
# Lookup of reported normalized growth keyed by entry

- Compound: "O=c1c(O)c(-c2ccc(O)cc2O)oc2cc(O)cc(O)c12"
  normalized growth: 1.01
- Compound: "CCCCCc1c2c(cc(O)c1C(=O)O)OC(=O)c1c(cc(OC)cc1C(=O)CCCC)O2"
  normalized growth: 1.02
- Compound: "CC(=O)O[C@@H]1CC(=O)[C@@]2(C)C(CC(=O)[C@]3(C)C2CC[C@@]2(C)[C@H](c4ccoc4)OC(=O)C4OC423)C1(C)C (stereo partly drawn)"
  normalized growth: 0.98
- Compound: "COc1ccccc1/C=C\\C(=O)O"
  normalized growth: 1.02
- Compound: "CC1(C)C=CC(=O)[C@@]2(C)C1CC(=O)[C@]1(C)C2CC[C@@]2(C)[C@H](c3ccoc3)OC(=O)C3OC321 (stereo partly drawn)"
  normalized growth: 1
- Compound: "CC(C)(C)NCC(O)c1cc(Cl)c(N)c(Cl)c1 (stereo not drawn)"
  normalized growth: 1
- Compound: "CC1(C)C(=O)C=C[C@@]2(C)C1CC(=O)[C@]1(C)C2CC[C@@]2(C)[C@H](c3ccoc3)OC(=O)[C@H]3O[C@]321 (stereo partly drawn)"
  normalized growth: 0.992
- Compound: "CNC(C)C(O)c1ccccc1 (stereo not drawn)"
  normalized growth: 1.01
- Compound: "CC(=O)O[C@@H]1CC2C(C)(C)C(=O)C=C[C@]2(C)C2CC[C@@]3(C)[C@H](c4ccoc4)OC(=O)[C@H]4O[C@]43[C@@]21C (stereo partly drawn)"
  normalized growth: 0.983
- Compound: "C[C@@H]([C@H](O)c1ccccc1)N(C)C"
  normalized growth: 0.983
- Compound: "CC1(C)C2CC(=O)[C@]3(C)C(CC[C@@]4(C)[C@H](c5ccoc5)OC(=O)[C@H]5O[C@]543)[C@@]2(C)C(=O)C[C@H]1O (stereo partly drawn)"
  normalized growth: 0.995
- Compound: "CCCCCCC(C)OC(=O)COc1ccc(Cl)cc1Cl (stereo not drawn)"
  normalized growth: 1
- Compound: "CC1O[C@@H](Oc2c(-c3ccc(O)c(O)c3)oc3cc(O)cc(O)c3c2=O)[C@H](O)[C@H](O)[C@H]1O (stereo partly drawn)"
  normalized growth: 1.01
